study target: AKT3 (Homo sapiens)
Sequence (Q9Y243 whole entry): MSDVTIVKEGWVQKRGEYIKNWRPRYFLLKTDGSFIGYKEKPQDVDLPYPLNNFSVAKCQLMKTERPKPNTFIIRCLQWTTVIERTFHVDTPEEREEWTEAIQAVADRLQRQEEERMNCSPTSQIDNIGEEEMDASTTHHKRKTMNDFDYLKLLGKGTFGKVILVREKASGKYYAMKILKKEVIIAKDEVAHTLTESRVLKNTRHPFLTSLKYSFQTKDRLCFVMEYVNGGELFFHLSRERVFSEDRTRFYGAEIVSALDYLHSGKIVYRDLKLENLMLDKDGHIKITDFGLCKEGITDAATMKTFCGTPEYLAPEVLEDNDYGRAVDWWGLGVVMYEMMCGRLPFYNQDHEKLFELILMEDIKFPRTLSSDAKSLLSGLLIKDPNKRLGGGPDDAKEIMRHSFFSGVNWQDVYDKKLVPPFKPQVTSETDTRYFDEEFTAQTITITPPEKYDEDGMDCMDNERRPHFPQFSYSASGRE
experimental protocol: AKT Kinase Assay (IMAP fluorescent polarisation) vs AKT3
experimental context: activated AKT3, FAM Crosstide substrate
pIC50: −log10 of the molar value. Structures can show the parent of a compound that is named as a salt.
pIC50 values for the compounds below.

Worked cases, pIC50 given:
- compound: "COc1cc2oc(-c3ccccc3)c(-c3ccc(C4(N)CCC4)cc3)c(=O)c2cc1C(N)=O"
  study target: "AKT3 (Homo sapiens)"
  pIC50: "5.00 to 6.00"
- compound: "Cn1ncc2ccc3c(=O)c(-c4ccc(C5(N)CCC5)cc4)c(-c4ccccc4)oc3c21"
  study target: "AKT3 (Homo sapiens)"
  pIC50: "5.00 to 6.00"
- compound: "CC(C)n1ncc2ccc3c(=O)c(-c4ccc(C5(N)CCC5)cc4)c(-c4ccccc4)oc3c21 [Example 83, hydrochloride]"
  study target: "AKT3 (Homo sapiens)"
  pIC50: "5.00 to 6.00"
- compound: "COc1cc2oc(-c3ccccc3)c(-c3ccc(C4(N)CCC4)cc3)c(=O)c2cc1Br"
  study target: "AKT3 (Homo sapiens)"
  pIC50: "< 5.00"
- compound: "NC1(c2ccc(-c3c(-c4ccccc4)oc4c(ccc5[nH]ncc54)c3=O)cc2)CCC1"
  study target: "AKT3 (Homo sapiens)"
  pIC50: "≥ 6.00"

[Q] Give the reported pIC50 for `Cn1cnc2ccc3c(=O)c(-c4ccc(C5(N)CCC5)cc4)c(-c4ccccc4)oc3c21` (system: AKT3 (Homo sapiens)).
[A] ≥ 6.00

[Q] Give the reported pIC50 for `N#Cc1ccc2oc(-c3ccccc3)c(-c3ccc(C4(N)CCC4)cc3)c(=O)c2c1` (system: AKT3 (Homo sapiens)).
[A] < 5.00

[Q] Give the reported pIC50 for NC1(c2ccc(-c3c(-c4ccccc4)oc4cc(F)ccc4c3=O)cc2)CCC1 [Example 37, hydrochloride] (system: AKT3 (Homo sapiens)).
[A] 5.00 to 6.00

---

study target: AKT1 (Homo sapiens, UniProt P31749)
Sequence (P31749 whole entry): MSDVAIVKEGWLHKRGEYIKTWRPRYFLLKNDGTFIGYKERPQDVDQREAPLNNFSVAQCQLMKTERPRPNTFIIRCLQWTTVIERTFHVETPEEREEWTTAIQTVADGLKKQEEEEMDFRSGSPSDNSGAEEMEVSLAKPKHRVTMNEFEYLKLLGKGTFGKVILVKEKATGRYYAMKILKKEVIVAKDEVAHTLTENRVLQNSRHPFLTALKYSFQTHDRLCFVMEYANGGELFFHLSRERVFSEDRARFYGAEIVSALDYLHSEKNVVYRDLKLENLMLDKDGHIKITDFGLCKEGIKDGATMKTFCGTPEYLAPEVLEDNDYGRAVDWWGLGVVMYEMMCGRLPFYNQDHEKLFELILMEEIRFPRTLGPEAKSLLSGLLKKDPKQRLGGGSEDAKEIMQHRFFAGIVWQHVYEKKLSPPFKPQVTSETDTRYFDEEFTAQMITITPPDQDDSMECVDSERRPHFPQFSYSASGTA
experimental protocol: AKT Kinase Assay (IMAP fluorescent polarisation) vs AKT1
experimental context: activated AKT1, FAM Crosstide substrate
pIC50: −log10 of the molar value. Counter-ions that a name gives are not always drawn.
pIC50 values for the molecules below.

Worked cases, pIC50 given:
- molecule: "NC1(c2ccc(-c3c(-c4ccccc4)oc4c(CCCl)nccc4c3=O)cc2)CCC1"
  pIC50: "≥ 6.00"
- molecule: "CCc1nn(C)c2c1ccc1c(=O)c(-c3ccc(C4(N)CCC4)cc3)c(-c3ccccc3)oc12 [Example 98, hydrochloride]"
  pIC50: "≥ 6.00"

Now consider the entry below.
[Q] May I ask what pIC50 has been recorded for NC1(c2ccc(-c3c(-c4ccccc4)oc4c(-n5cnnc5)nccc4c3=O)cc2)CCC1 [Example 102, hydrochloride] ?
[A] ≥ 6.00

---

study target: AKT2 (Homo sapiens, UniProt P31751)
Sequence (P31751 whole entry): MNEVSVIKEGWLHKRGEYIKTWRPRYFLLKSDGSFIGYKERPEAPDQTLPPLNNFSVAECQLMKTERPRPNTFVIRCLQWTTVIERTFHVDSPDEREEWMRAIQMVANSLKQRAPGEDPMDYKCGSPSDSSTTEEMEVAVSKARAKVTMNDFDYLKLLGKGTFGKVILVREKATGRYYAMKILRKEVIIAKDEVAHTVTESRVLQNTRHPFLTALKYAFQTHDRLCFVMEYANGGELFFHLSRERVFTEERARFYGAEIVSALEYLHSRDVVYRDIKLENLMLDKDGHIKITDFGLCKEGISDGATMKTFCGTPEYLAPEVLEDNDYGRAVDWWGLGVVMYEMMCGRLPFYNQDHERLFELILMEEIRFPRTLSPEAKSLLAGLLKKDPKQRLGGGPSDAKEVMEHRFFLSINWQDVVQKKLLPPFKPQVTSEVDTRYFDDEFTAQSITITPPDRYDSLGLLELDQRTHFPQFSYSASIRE
experimental protocol: AKT Kinase Assay (IMAP fluorescent polarisation) vs AKT2
experimental context: activated AKT2, FAM Crosstide substrate
Where a name gives a salt, the structure may show the parent alone.
IC50 values for the molecules below.

Worked cases, IC50 given:
- molecule: "NC1(c2ccc(-c3c(-c4ccccc4)oc4ncccc4c3=O)cc2)CCC1"
  recorded measurement: "1000 to 10000 nM"
- molecule: "C#Cc1cccc2c(=O)c(-c3ccc(C4(N)CCC4)cc3)c(-c3ccccc3)oc12"
  recorded measurement: "1000 to 10000 nM"
- molecule: "Cn1ncc2c3oc(-c4ccccc4)c(-c4ccc(C5(N)CCC5)cc4)c(=O)c3ccc21"
  recorded measurement: "≤ 1000 nM"
- molecule: "NC1(c2ccc(-c3c(-c4ccccc4)oc4c(-c5cccnc5)cccc4c3=O)cc2)CCC1"
  recorded measurement: "≤ 1000 nM"
- molecule: "NC1(c2ccc(-c3c(-c4ccccc4)oc4c5c(ccc4c3=O)OCC(=O)N5)cc2)CCC1"
  recorded measurement: "1000 to 10000 nM"

[Q] May I ask what IC50 has been recorded for `Cc1c(-c2nccc3c(=O)c(-c4ccc(C5(N)CCC5)cc4)c(-c4ccccc4)oc23)cnn1C` ?
[A] 1000 to 10000 nM

[Q] May I ask what IC50 has been recorded for `COc1cc2c(=O)c(-c3ccc(C4(N)CCC4)cc3)c(-c3ccccc3)oc2cc1C#N` ?
[A] 1000 to 10000 nM

[Q] May I ask what IC50 has been recorded for `N#CCn1ncc2ccc3c(=O)c(-c4ccc(C5(N)CCC5)cc4)c(-c4ccccc4)oc3c21` ?
[A] 1000 to 10000 nM

[Q] May I ask what IC50 has been recorded for CCn1cc2ccc3c(=O)c(-c4ccc(C5(N)CCC5)cc4)c(-c4ccccc4)oc3c2n1 [Example 82, hydrochloride] ?
[A] ≤ 1000 nM

[Q] May I ask what IC50 has been recorded for `NC1(c2ccc(-c3c(-c4ccccc4)oc4c(-c5ccccc5)nccc4c3=O)cc2)CCC1` ?
[A] 1000 to 10000 nM

[Q] May I ask what IC50 has been recorded for NC1(c2ccc(-c3c(-c4ccccc4)oc4c(C5CC5)nccc4c3=O)cc2)CCC1 [Example 126, hydrochloride] ?
[A] 1000 to 10000 nM

[Q] May I ask what IC50 has been recorded for NC1(c2ccc(-c3c(-c4ccccc4)oc4c(Oc5ccccn5)nccc4c3=O)cc2)CCC1 [Example 103, hydrochloride] ?
[A] 1000 to 10000 nM

[Q] May I ask what IC50 has been recorded for `NC1(c2ccc(-c3c(-c4ccccc4)oc4cc5c(cc4c3=O)OCCO5)cc2)CCC1` ?
[A] 1000 to 10000 nM
